- Tested on: ATP;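 also: ATP exposure 15 min at 22 °C before imaging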
- methodDescription: switch fluorescence ratio, 500 uM ATP over buffer (Cy3 cluster intensity, sum of 5 cycles each) (fold (ratio)); higher = stronger signal-on switching upon ATP binding; sequences stand for … in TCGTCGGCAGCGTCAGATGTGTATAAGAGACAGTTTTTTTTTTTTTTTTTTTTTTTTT…TC
- testConditions: aptamer strand: ATP DNA aptamer (quencher-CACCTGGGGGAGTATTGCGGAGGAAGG + anchor), 100 nM annealed; ATP concentration: 500 uM
quantityMeasured: switch fluorescence ratio
Answer with a number only.

Consider the reported switch fluorescence ratio for these sequences:
TAGTGCGGTA	1.04
GTTGGATGTA	1.01
GGGTTCATTT	1.02

**Query** Field request: switch fluorescence ratio | item: AACGGTTGGC
**Result** 0.975

**Query** Field request: switch fluorescence ratio | item: AGGGCACGGG
**Result** 0.982

**Query** Field request: switch fluorescence ratio | item: GGGAGTAAGG
**Result** 1.02

**Query** Field request: switch fluorescence ratio | item: GTGGGTATTT
**Result** 0.977

**Query** Field request: switch fluorescence ratio | item: TTCGTTAGCG
**Result** 0.996

**Query** Field request: switch fluorescence ratio | item: GAGAGGGGAA
**Result** 1.01

**Query** Field request: switch fluorescence ratio | item: CGGAAGCTTT
**Result** 1.04

**Query** Field request: switch fluorescence ratio | item: AACAGTTAGG
**Result** 0.976

**Query** Field request: switch fluorescence ratio | item: GGTACAGGAC
**Result** 1.06

**Query** Field request: switch fluorescence ratio | item: ATCGTATGGT
**Result** 1

**Query** Field request: switch fluorescence ratio | item: CCAAGGAAAA
**Result** 1.04

**Query** Field request: switch fluorescence ratio | item: CGTCAACTGC
**Result** 1.17

**Query** Field request: switch fluorescence ratio | item: TTTCCTTTGT
**Result** 1.01

**Query** Field request: switch fluorescence ratio | item: TCAAGCCATC
**Result** 1.06

**Query** Field request: switch fluorescence ratio | item: GGCCGTTGGG
**Result** 0.965

**Query** Field request: switch fluorescence ratio | item: TGCTTAAGCA
**Result** 0.982

**Query** Field request: switch fluorescence ratio | item: GATTCTCCGT
**Result** 1.16

**Query** Field request: switch fluorescence ratio | item: CCATGTTAAG
**Result** 0.985

**Query** Field request: switch fluorescence ratio | item: GTGGTATTAT
**Result** 1.01

###

- System: ATP;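 also: ATP exposure 15 min at 22 °C before imaging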
- methodDescription: switch fluorescence ratio, 500 uM ATP over buffer (Cy3 cluster intensity, sum of 5 cycles each) (fold (ratio)); higher = stronger signal-on switching upon ATP binding; sequences stand for … in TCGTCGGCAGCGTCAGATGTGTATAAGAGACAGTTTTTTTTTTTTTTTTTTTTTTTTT…TC
- testConditions: aptamer strand: ATP DNA aptamer (quencher-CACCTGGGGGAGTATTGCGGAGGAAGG + anchor), 100 nM annealed; ATP concentration: 500 uM
Listing of entries alongside the reported switch fluorescence ratio.
Answer with a number only.

Consider the reported switch fluorescence ratio for these sequences:
TAATCCATCG	1.03
TCCTTGGGTT	1.02
TGGGTACGTC	0.998

**Query** Field request: switch fluorescence ratio | item: ATGGGGAAGT
**Result** 1.02

**Query** Field request: switch fluorescence ratio | item: GTAAGGGGTC
**Result** 1

**Query** Field request: switch fluorescence ratio | item: CGTGAGAAGT
**Result** 0.992

###

- Tested on: ATP;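 also: ATP exposure 15 min at 22 °C before imaging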
- methodDescription: switch fluorescence ratio, 500 uM ATP over buffer (Cy3 cluster intensity, sum of 5 cycles each) (fold (ratio)); higher = stronger signal-on switching upon ATP binding; sequences stand for … in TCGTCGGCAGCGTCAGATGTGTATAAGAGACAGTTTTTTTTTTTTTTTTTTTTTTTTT…TC
- testConditions: aptamer strand: ATP DNA aptamer (quencher-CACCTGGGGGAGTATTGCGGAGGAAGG + anchor), 100 nM annealed; ATP concentration: 500 uM
quantityMeasured: switch fluorescence ratio
Answer with a number only.

Consider the reported switch fluorescence ratio for these sequences:
GAGGCGTGTG	0.985
ATTATAGTCG	1.01
GGAAGCTTAA	1.05

**Query** Field request: switch fluorescence ratio | item: TGATTAAGGG
**Result** 0.975

**Query** Field request: switch fluorescence ratio | item: ACGGGGTTTC
**Result** 1.01

**Query** Field request: switch fluorescence ratio | item: GCGGGGTAGT
**Result** 1.01

**Query** Field request: switch fluorescence ratio | item: AAATCTTTCG
**Result** 1.05

**Query** Field request: switch fluorescence ratio | item: TTTTGGACTA
**Result** 1.05

**Query** Field request: switch fluorescence ratio | item: AAGGCAAGAT
**Result** 1.04

**Query** Field request: switch fluorescence ratio | item: GGAAAAAGGA
**Result** 0.942

**Query** Field request: switch fluorescence ratio | item: AAATATATTA
**Result** 1.02

###

- System: ATP;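 also: ATP exposure 15 min at 22 °C before imaging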
- methodDescription: switch fluorescence ratio, 500 uM ATP over buffer (Cy3 cluster intensity, sum of 5 cycles each) (fold (ratio)); higher = stronger signal-on switching upon ATP binding; sequences stand for … in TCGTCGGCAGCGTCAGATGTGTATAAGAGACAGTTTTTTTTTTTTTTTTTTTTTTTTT…TC
- testConditions: aptamer strand: ATP DNA aptamer (quencher-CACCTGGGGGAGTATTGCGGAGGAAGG + anchor), 100 nM annealed; ATP concentration: 500 uM
Listing of entries alongside the reported switch fluorescence ratio.
Answer with a number only.

Consider the reported switch fluorescence ratio for these sequences:
GCAGGGGGCA	1.02
GGTCGGGTAC	0.968
GGATTAATGT	0.971
CTGTAGTCTG	1.11
TTTTCGCTTA	1.01

**Query** What is its switch fluorescence ratio for ATP? Entry: ATGTTTATCA
**Result** 1.01

**Query** What is its switch fluorescence ratio for ATP? Entry: GACGGAAGCA
**Result** 1.38

**Query** What is its switch fluorescence ratio for ATP? Entry: AAGGGAATGA
**Result** 0.987

**Query** What is its switch fluorescence ratio for ATP? Entry: TACCGACATA
**Result** 1.19

**Query** What is its switch fluorescence ratio for ATP? Entry: CACTACGGGA
**Result** 1.05

###

- Test system: ATP;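 also: ATP exposure 15 min at 22 °C before imaging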
- methodDescription: switch fluorescence ratio, 500 uM ATP over buffer (Cy3 cluster intensity, sum of 5 cycles each) (fold (ratio)); higher = stronger signal-on switching upon ATP binding; sequences stand for … in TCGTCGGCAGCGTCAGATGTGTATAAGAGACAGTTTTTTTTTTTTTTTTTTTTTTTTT…TC
- testConditions: aptamer strand: ATP DNA aptamer (quencher-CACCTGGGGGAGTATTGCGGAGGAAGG + anchor), 100 nM annealed; ATP concentration: 500 uM
quantityMeasured: switch fluorescence ratio
Answer with a number only.

Consider the reported switch fluorescence ratio for these sequences:
AGGAGGTTGG	0.998
ATGGGATTGG	0.962
GCTGTAAAGC	1.03
GCACGGAGGG	1.01

**Query** Field request: switch fluorescence ratio | item: TATGAAGTCG
**Result** 0.994

**Query** Field request: switch fluorescence ratio | item: TTTGGGTTGA
**Result** 1.03

**Query** Field request: switch fluorescence ratio | item: TTTTTCCGGG
**Result** 1.1

**Query** Field request: switch fluorescence ratio | item: GCTTGGCTCG
**Result** 1.01

**Query** Field request: switch fluorescence ratio | item: CATGTATTTT
**Result** 0.991

**Query** Field request: switch fluorescence ratio | item: AAGGGTTTAG
**Result** 1

**Query** Field request: switch fluorescence ratio | item: TATTGAAGAG
**Result** 1.01

**Query** Field request: switch fluorescence ratio | item: ATAGATAGCC
**Result** 0.96

**Query** Field request: switch fluorescence ratio | item: TGGGTTAGAG
**Result** 0.988

**Query** Field request: switch fluorescence ratio | item: AATTTTAGTC
**Result** 0.994

**Query** Field request: switch fluorescence ratio | item: TTGGGACTTT
**Result** 1.03

**Query** Field request: switch fluorescence ratio | item: ATTTCTAGGG
**Result** 1.03

**Query** Field request: switch fluorescence ratio | item: TTTGAGGCAT
**Result** 1.71

**Query** Field request: switch fluorescence ratio | item: ATGGTTCAAC
**Result** 1

**Query** Field request: switch fluorescence ratio | item: AGCAACGTTC
**Result** 1.07

**Query** Field request: switch fluorescence ratio | item: TAGCTTGTGG
**Result** 0.991

**Query** Field request: switch fluorescence ratio | item: TTATGGTCCG
**Result** 0.976

**Query** Field request: switch fluorescence ratio | item: TGGCTGCAGA
**Result** 0.972

**Query** Field request: switch fluorescence ratio | item: GGGTGGGAGT
**Result** 1.03

**Query** Field request: switch fluorescence ratio | item: ACATGTAGCG
**Result** 0.99

**Query** Field request: switch fluorescence ratio | item: TTTAATCCGT
**Result** 1.01
